- Tested on: MDA-MB-231 breast
- assay.name: NCI-60 one-dose screen, 48 h
- experimental.parameters: 10 µM unless noted
- Experimental: Cells are grown in 96 well plates and exposed to the test compound for 48 hours. Compounds are tested at a single concentration, which is 10^-5 M for most compounds. The reported endpoint is percent growth (GI% or GIPRCNT), where numbers from 0 - 100% represent growth inhibition, and numbers from -100% - 0 represent cell death. For example, a value of 40 represents 60% growth inhibition. A value of 0 means no net growth occurred over the course of the experiment. […]
About 83,000 compounds went through this panel and 20% of them were active in at least one assay; those are over-represented in the sample as a whole. Calls of active or inactive are those of the source. The calls were made as follows: active = growth percent below 10; inactive = the rest.
Labels: class 1 = active, class 0 = inactive

| molecule | cat |
| --- | --- |
| CCOc1ccc(C(=O)Nc2ncc(Cc3ccc(F)cc3)s2)cc1 | class 0 |
| Cc1ccc(-n2cc(/C=N/NC(=O)c3nc(N)n[nH]3)c(-c3ccc(S(C)(=O)=O)cc3)n2)cc1 | class 0 |
| Cn1ccnc1C(=O)/C=C/c1ccc(CNC(=O)c2ccc(S(F)(F)(F)(F)F)cc2)cc1 | class 1 |
| COc1ccc(NCc2cn(-c3ccc(C(=O)O)cc3)nc2-c2cc(C(F)(F)F)cc(C(F)(F)F)c2)cc1 | class 0 |
| Nc1ncc(-c2ccc(NS(=O)(=O)c3ccc(Cl)c(Cl)c3)cc2)[nH]1 | class 0 |
| CNC(=O)c1c(NC(=O)c2ccccc2C(F)(F)F)sc2c1CCC(=O)C2 | class 0 |
| COc1cc(OC)c(S(N)(=O)=O)cc1C(=O)/C=C/c1ccc(Cl)cc1 | class 0 |
| CC(=O)c1cc(C(=O)N2c3ccccc3Sc3ccccc32)n2ccc3ccccc3c12 | class 0 |
| CC(=O)N1C(=S)NC(=O)C1CC(C)C (stereo unspecified) | class 0 |
| N#Cc1c(Nc2ccccc2)nn2c(-c3ccc([N+](=O)[O-])cc3)ccnc12 | class 0 |
| CCNC(=O)N1CCc2cc(OC)c(OCCc3ccc(OC)nc3)cc2C1c1ccc(OC)cc1C (stereo unspecified) | class 0 |
| Cn1cc(-c2nc(N)nnc2-c2c[nH]c3ccc(Br)cc23)c2cc(Br)ccc21 | class 0 |
| O=C(O)c1ccc(-n2cc(CNc3cc(F)c(F)c(F)c3)c(-c3cccc(F)c3)n2)cc1 | class 0 |
| O=S(=O)(NCCCNc1nccc(-c2[nH]c(-c3ccccc3)nc2-c2ccc(Cl)c(O)c2)n1)c1ccc(Br)cc1 | class 0 |
| COc1ccc([C@@H]2c3[nH]c4ccccc4c3C[C@H]3C(=O)N(C4CCN(CC5CCCCC5)CC4)CC(=O)N23)c(OC)c1 | class 0 |
| O=C(CSc1nc2ccccc2c(=O)n1-c1ccc(Cl)cc1)N/N=C/c1ccc(N2CCCCC2)cc1 | class 0 |
| CCCCCc1ccc(S(=O)(=O)Nc2cccc(-c3csc(NCCN4CCN(C)CC4)n3)c2)cc1 | class 0 |
| COc1cccc(O)c1/C=C(/C)c1ccc2c(OC)cccc2[o+]1 | class 0 |
| COc1ccc2c(c1)c(CC(=O)[Se]CC#N)c(C)n2C(=O)c1ccc(Cl)cc1 | class 1 |
| O=C(CN1CCN(c2cc(=O)n(-c3ccccc3)c3ccccc23)CC1)Nc1ccc(F)cc1 | class 0 |
| O=C(c1ccc(O)c(C(=O)N2Cc3ccc(OCCC[P+](c4ccccc4)(c4ccccc4)c4ccccc4)cc3C2)c1)N1Cc2cccc(F)c2C1 | class 0 |
| O=C1[C@H]2Cc3c([nH]c4ccccc34)[C@@H](c3ccc(Br)cc3)N2C(=O)CN1C1CCN(CC2CCCCC2)CC1 | class 1 |
| CC1=NC2=NN3C(=NN2C(c2ccccc2)=C1)N=NC(c1ccc(Br)cc1)=C3c1ccc(Br)cc1 | class 0 |
| COc1ccc(-c2nc3cc(Cl)c(Cl)cc3n2CC(=O)N=Nc2c(O)[nH]c3ccc(OC)cc23)cc1 | class 0 |
| O=C(CN1CCN(c2cc(=O)n(-c3ccccc3)c3ccccc23)CC1)Nc1nc(-c2ccc(Cl)cc2)cs1 | class 0 |
| O=C1CCC(N2C(=O)c3ccc(NS(=O)(=O)c4ccccc4OC(F)(F)F)cc3C2=O)C(=O)N1 (stereo unspecified) | class 1 |
| C=CCn1c(SCC(=O)Nc2ccc(C(=O)/C=C/c3ccc(Cl)cc3)cc2)nnc1-c1c[nH]c2ccccc12 | class 0 |
| CC(C)(C)n1nnnc1C(Nc1cccc2c1OCO2)c1cc2cccc3ccc4cccc1c4c32 (stereo unspecified) | class 0 |
| COc1ccc(Cn2cc3c(c2-c2cc(OC)c(OC)c(OC)c2)CCc2c(CN4CCCC4)noc2-3)cc1 | class 0 |
| Cc1ccc(S(=O)(=O)NCCNc2nc(Nc3ccc(N4CCN(C)CC4)cc3)nc3ccsc23)cc1 | class 0 |
| COc1ccccc1-n1cc(C#N)c(N)c1C(=O)c1ccc(C)cc1 | class 0 |
| CC(C)(C)c1ccc(CC(=O)Nc2sc3c(c2C(N)=O)CCC(=O)C3)cc1 | class 1 |
| O=C(NNc1nc2cc(F)c(F)cc2n2cccc12)c1cnccn1 | class 0 |
| CN1CCN(Cc2ccc(NC(=O)c3cncc(C#Cc4cnc5ccc(OCC6(C)COC6)nn45)c3)cc2C(F)(F)F)CC1 | class 1 |
| O=C(Nc1ccc(F)c(F)c1)c1cc(-c2ccc(F)cc2F)ccc1O | class 1 |
| CN1CCN(Cc2ccc(NC(=O)c3cncc(C#Cc4cnc5ccc(OCC(C)(C)O)nn45)c3)cc2C(F)(F)F)CC1 | class 1 |
